Source: paper PMC6152277

# System: three cancer cell lines (MCF-7, SMMC-7721, HeLa)
# test.details: MTT cytotoxic assay, summary statements over the three cancer cell lines
# Type: cell-based, human
# condition.notes: MCF-7, SMMC-7721, HeLa
readout.type: cytotoxic activity against the three cancer cell lines (in words)

compound="CCCCN(CCCC)Cc1nc2c(Br)cc3c(c2nc1CN(CCCC)CCCC)CCC1[C@](C)(C(=O)OC)CCC[C@]31C (stereo partly shown) [Compound 4d]" result="weak activity"
compound="COC(=O)[C@]1(C)CCC[C@]2(C)c3cc(Br)c4nc(CN5CCCCCC5)c(CN5CCCCCC5)nc4c3CCC12 (stereo partly shown) [Compound 4g]" result="weak activity"

* * *

# Tested on: human breast cancer cell line (MCF-7)
# test.details: MTT cytotoxic assay, MCF-7
# Type: cell-based
# condition.notes: MCF7, 48 h exposure
Strictly below 20 µM in IC50: true (1). Otherwise: false (0).

compound="COC(=O)[C@]1(C)CCC[C@]2(C)c3cc(Br)c4nc(Cn5ncnn5)c(Cn5ncnn5)nc4c3CCC12 (stereo partly shown) [Compound 4o]" tested_target="human breast cancer cell line (MCF-7)" group="false (0)"
compound="COC(=O)[C@]1(C)CCC[C@]2(C)c3cc(Br)c4nc(CN5CCCCC5)c(CN5CCCCC5)nc4c3CCC12 (stereo partly shown) [Compound 4f]" tested_target="human breast cancer cell line (MCF-7)" group="true (1)"
compound="COC(=O)[C@]1(C)CCC[C@]2(C)c3cc(Br)c4nc(Cn5cnnn5)c(Cn5cnnn5)nc4c3CCC12 (stereo partly shown) [Compound 4n]" tested_target="human breast cancer cell line (MCF-7)" group="true (1)"
compound="COC(=O)[C@]1(C)CCC[C@]2(C)c3cc(Br)c4nc(CN5CCOCC5)c(CN5CCOCC5)nc4c3CCC12 (stereo partly shown) [Compound 4h]" tested_target="human breast cancer cell line (MCF-7)" group="true (1)"
compound="CCN(CC)Cc1nc2c(Br)cc3c(c2nc1CN(CC)CC)CCC1[C@](C)(C(=O)OC)CCC[C@]31C (stereo partly shown) [Compound 4b]" tested_target="human breast cancer cell line (MCF-7)" group="true (1)"
compound="COC(=O)[C@]1(C)CCC[C@]2(C)c3cc(Br)c4nc(CBr)c(CBr)nc4c3CCC12 (stereo partly shown) [Compound 3]" tested_target="human breast cancer cell line (MCF-7)" group="false (0)"
compound="COC(=O)[C@]1(C)CCC[C@]2(C)c3cc(Br)c4nc(CN5CCCCCC5)c(CN5CCCCCC5)nc4c3CCC12 (stereo partly shown) [Compound 4g]" tested_target="human breast cancer cell line (MCF-7)" group="false (0)"

* * *

Below: a set of entries, each annotated with reported pIC50.
# System: human breast cancer cell line (MCF-7)
# test.details: MTT cytotoxic assay, MCF-7
# Type: cell-based
# condition.notes: MCF7, 48 h exposure
pIC50: −log10 of the molar value.
readout.type: pIC50

compound="COc1cc([C@@H]2c3cc4c(cc3[C@@H](O[C@@H]3O[C@@H]5CO[C@@H](C)O[C@H]5[C@H](O)[C@H]3O)[C@H]3COC(=O)[C@H]23)OCO4)cc(OC)c1O [Etoposide, reference compound]" result=6.14
compound="COC(=O)[C@]1(C)CCC[C@]2(C)c3cc(Br)c4nc(CN5CCCC5)c(CN5CCCC5)nc4c3CCC12 (stereo partly drawn) [Compound 4e]" result=4.69
compound="COC(=O)[C@]1(C)CCC[C@]2(C)c3cc(Br)c4nc(CN5CCN(C)CC5)c(CN5CCN(C)CC5)nc4c3CCC12 (stereo partly drawn) [Compound 4j]" result=4.91

* * *

Below: a set of entries, each annotated with reported pIC50.
# Test system: human breast cancer cell line (MCF-7)
# test.details: MTT cytotoxic assay, MCF-7
# Type: cell-based
# condition.notes: MCF7, 48 h exposure
pIC50: −log10 of the molar value.
readout.type: pIC50

compound="COC(=O)[C@]1(C)CCC[C@]2(C)c3cc(Br)c4nc(Cn5ccnn5)c(Cn5ccnn5)nc4c3CCC12 (stereo partly drawn)" relation== result=5.43
compound="CCCN(CCC)Cc1nc2c(Br)cc3c(c2nc1CN(CCC)CCC)CCC1[C@](C)(C(=O)OC)CCC[C@]31C (stereo partly drawn)" relation== result=4.68
compound="COC(=O)[C@]1(C)CCC[C@]2(C)c3cc(Br)c4nc(Cn5ccnc5)c(Cn5ccnc5)nc4c3CCC12 (stereo partly drawn)" relation== result=4.64
compound="COC(=O)[C@]1(C)CCC[C@]2(C)c3cc(Br)c4nc(CN(C)C)c(CN(C)C)nc4c3CCC12 (stereo partly drawn)" relation== result=5.63
compound="CCN1CCN(Cc2nc3c(Br)cc4c(c3nc2CN2CCN(CC)CC2)CCC2[C@](C)(C(=O)OC)CCC[C@]42C)CC1 (stereo partly drawn)" relation== result=4.41
compound="CCCCN(CCCC)Cc1nc2c(Br)cc3c(c2nc1CN(CCCC)CCCC)CCC1[C@](C)(C(=O)OC)CCC[C@]31C (stereo partly drawn)" relation== result=4.55
compound="CC(C)c1ccc2c(c1)CC[C@H]1[C@](C)(C(=O)O)CCC[C@]21C [Compound 1, Dehydroabietic acid]" relation=< result=4.30
compound="COC(=O)[C@]1(C)CCC[C@]2(C)c3cc(Br)c(N)c(N)c3CCC12 (stereo partly drawn)" relation=< result=4.30
compound="COC(=O)[C@]1(C)CCC[C@]2(C)c3cc(Br)c4nc(CN5CCNCC5)c(CN5CCNCC5)nc4c3CCC12 (stereo partly drawn)" relation== result=5.23
